test summary: Inhibition of full-length Pseudomonas aeruginosa ClpP1 expressed in Escherichia coli BL21(DE3) using Suc-LY-AMC as substrate measured for 60 mins in presence of Bz-LL by fluorescence based assay
endpoint: IC50

Data request, read-out IC50, for COc1cc2c(Oc3ccc4[nH]c(C)cc4c3F)ncnc2cc1OCCCN1CCCC1 [CEDIRANIB]
> 500 µM

----------
measurement target: ClpP1P2 (Mycobacterium tuberculosis (strain ATCC 25618 / H37Rv), UniProt P9WPC3+P9WPC5)
Sequence (P9WPC5 whole entry, the tested form may be a part): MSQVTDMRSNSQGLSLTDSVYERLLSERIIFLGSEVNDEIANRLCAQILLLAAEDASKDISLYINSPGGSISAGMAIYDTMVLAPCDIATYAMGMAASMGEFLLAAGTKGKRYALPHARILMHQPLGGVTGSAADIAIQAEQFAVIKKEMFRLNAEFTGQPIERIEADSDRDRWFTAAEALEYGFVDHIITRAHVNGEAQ
Sequence (P9WPC3 whole entry, the tested form may be a part): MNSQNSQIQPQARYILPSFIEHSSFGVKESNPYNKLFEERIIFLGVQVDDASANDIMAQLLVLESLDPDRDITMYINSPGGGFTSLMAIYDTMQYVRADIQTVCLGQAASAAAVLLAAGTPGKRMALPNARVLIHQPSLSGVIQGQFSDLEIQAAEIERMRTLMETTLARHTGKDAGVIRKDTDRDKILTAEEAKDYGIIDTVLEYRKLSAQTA
test summary: Inhibition of N-terminal His6-SUMO-tagged Mtb ClpP1 (7 to 200 residues)/ClpP2 (13 to 214 residues) complex expressed in Escherichia coli BL21(DE3) using Z-Gly-Gly-Leu-AMC as substrate measured for 60 mins in presence of Bz-LL by fluorescence based assay
endpoint: IC50 (µM)
Please respond with the number in µM and leave the unit unwritten.

Data request, read-out IC50, for Oc1c(Cl)cc(Cl)c(Cl)c1Cc1c(O)c(Cl)cc(Cl)c1Cl
4.9

Data request, read-out IC50, for COc1cc2c(Oc3ccc4[nH]c(C)cc4c3F)ncnc2cc1OCCCN1CCC(c2ccc(C(N)=O)cc2)CC1
2.6

Data request, read-out IC50, for COc1cc2c(Oc3ccc4[nH]c(C)cc4c3F)ncnc2cc1OCCCCl
49.2

Data request, read-out IC50, for COc1cc(C(=O)Nc2ccc3[nH]c(C)cc3c2F)ccc1OCCCN1CCCC1
26.8

Data request, read-out IC50, for COc1cc2c(Oc3ccc4[nH]c(C)cc4c3F)ncnc2cc1OCCCN1CCC[C@@H](N)C1
3.3

Data request, read-out IC50, for Cc1cc2c(F)c(Oc3ncnn4cc(OC[C@@H](C)O)c(C)c34)ccc2[nH]1
6.9

----------
# maps each entry to its IC50
measurement target: ClpP1P2 (Mycobacterium tuberculosis (strain ATCC 25618 / H37Rv), UniProt P9WPC3+P9WPC5)
test summary: Inhibition of N-terminal His6-SUMO-tagged Mtb ClpP1 (7 to 200 residues)/ClpP2 (13 to 214 residues) complex expressed in Escherichia coli BL21(DE3) using Z-Gly-Gly-Leu-AMC as substrate measured for 60 mins in presence of Bz-LL by fluorescence based assay

Data request, read-out IC50, for COc1cc2c(Oc3ccc4cc[nH]c4c3)ncnc2cc1OCCCN1CCCC1
> 100 µM

Data request, read-out IC50, for COc1cc2c(Nc3ccc4[nH]c(C)cc4c3F)ncnc2cc1OCCCN1CCCC1
> 100 µM

Data request, read-out IC50, for COc1cc2c(Oc3ccc4[nH]c(C)cc4c3F)ncnc2cc1O
45.3 µM

Data request, read-out IC50, for COc1cc2c(Oc3ccc4[nH]c(C)cc4c3F)ncnc2cc1OCCCN1CCCC1
2.8 µM

Data request, read-out IC50, for COc1cc2c(OC)ncnc2cc1OCCCN1CCCC1
> 100 µM

----------
# maps each entry to its IC50
measurement target: ClpP1P2 (Mycobacterium tuberculosis (strain ATCC 25618 / H37Rv), UniProt P9WPC3+P9WPC5)
test summary: Inhibition of N-terminal His6-SUMO-tagged Mtb ClpP1 (7 to 200 residues)/ClpP2 (13 to 214 residues) complex expressed in Escherichia coli BL21(DE3) using FITC-casein as substrate measured for 1 hr in presence of Bz-LL/ATP by fluorescence based assay
Please respond with the number in µM and leave the unit unwritten.

Data request, read-out IC50, for COc1cc2c(Oc3ccc4[nH]c(C)cc4c3F)ncnc2cc1OCCCN1CCCC1
45.1

Data request, read-out IC50, for Cc1cc2c(F)c(Oc3ncnn4cc(OC[C@@H](C)O)c(C)c34)ccc2[nH]1
24.2

Data request, read-out IC50, for COc1cc2c(Oc3ccc4[nH]c(C)cc4c3F)ncnc2cc1OCCCN1CCC[C@@H](N)C1
19.1

Continuing:
Data request, read-out IC50, for COc1cc2c(Oc3ccc4[nH]c(C)cc4c3F)ncnc2cc1OCCCN1CCC(c2ccc(C(N)=O)cc2)CC1
8.9
